Measured values drawn from PubChem BioAssay AID1159580 for this set.

Test: chemical genetic growth profiling, strain panel (AID 1159580);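 also: tested at 20 µM; growth read once vehicle control cultures reached saturation at 30 °C; 1 = growth at the plate median or of vehicle wells; lower values mean less growth of the strain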
Conditions: S. cerevisiae deletion strains, growth OD, locus YEL003W, strain gim4, active compounds read low
Screen size: about 5,500 compounds; about 2,000 (36%) were called active. About 18% were inconclusive and are not listed. This is one part of the list.
property-label: normalized growth
Simply state the number, no unit and no words.

Study these solved cases before continuing.
COCCc1ccc(OCC(O)CNC(C)C)cc1 (stereo not given)	0.996
C[N+](C)(C)CCOC(N)=O	1.02
CCN(CC)CCNC(=O)c1cc(Br)c(N)cc1OC	0.979
OCCN1C[C@@H](O)[C@@H](O)C(O)C1CO (stereo not given in full)	1.01
CCC(=O)O[C@H]1CCC2C3CCC4=CC(=O)CC[C@]4(C)C3CC[C@@]21C (stereo not given in full)	0.943

What value of normalized growth has been recorded for this entry: CN1CCC(=C2c3ccccc3CC(=O)c3sccc32)CC1
0.986

====

Test: chemical genetic growth profiling, strain panel (AID 1159580);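 also: tested at 20 µM; growth read once vehicle control cultures reached saturation at 30 °C; 1 = growth at the plate median or of vehicle wells; lower values mean less growth of the strain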
Details: S. cerevisiae deletion strains, growth OD, locus YNL298W, strain CLA4, active compounds read low
In all, about 5,500 compounds went through this assay and about 2,000 (36%) were called active. About 18% were inconclusive and are not listed. The list shows a part of the results.
Response field label takes Condition met when normalized growth is strictly below 1 and Condition not met in all other cases.

Solved cases (3 shown):
CC1CC2C3CC(F)C4=CC(=O)C=CC4(C)C3(F)C(O)CC2(C)C1(O)C(=O)CO (stereo unspecified)	Condition not met
COc1cc2c(cc1OC)[C@@H]1C(=O)c3ccc4oc(C(C)C)cc4c3O[C@@H]1CO2	Condition not met
CCCCCCCCNC(C)C(O)c1ccc(SC(C)C)cc1 (stereo unspecified)	Condition met

Let's switch to this molecule now.
Consider CC(=O)OCC(=O)[C@H]1CCC2C3CCC4=CC(=O)CC[C@]4(C)C3CC[C@@]21C (stereo partly specified) . Does its normalized growth lie strictly below 1?
Condition met

====

Recorded normalized growth by entry
Assay: chemical genetic growth profiling, strain panel (AID 1159580);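 also: tested at 20 µM; growth read once vehicle control cultures reached saturation at 30 °C; 1 = growth at the plate median or of vehicle wells; lower values mean less growth of the strain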
Settings: S. cerevisiae deletion strains, growth OD, locus YKL085W, strain MDH1, active compounds read low
The campaign covered roughly 5,500 compounds. About 2,000 (36%) were called active. Roughly 18% stayed inconclusive and do not appear here. The list shows a part of the results.

Study these solved cases before continuing.
CC1CC2C3CC(F)C4=CC(=O)C=CC4(C)C3(F)C(O)CC2(C)C1(O)C(=O)CO (configuration not stated)	1.01 (inactive)
C=C1C([C@]2(C)C(CC(=O)OC)[C@@](C)(COC(C)=O)OC(=O)C[C@@H]2OC(C)=O)[C@@H](OC=O)[C@H](OC(=O)C(OC(C)=O)C(C)CC)[C@@]2(C)[C@H](c3ccoc3)CC(=O)C12O (some centres not stated)	1.16 [resistant] (active)
COc1ccc2c(c1OC)C(=O)O[C@@H]2[C@H]1c2cc3c(cc2CCN1C)OCO3	1.04 (inactive)
CC1/C(=N\O)C[C@@H]2C[C@H]1C2(C)C (some centres not stated)	1.02 (inactive)

What value of normalized growth has been recorded for this entry: ClC1=C(Cl)C2(Cl)C3C(Cl)C=CC3C1(Cl)C2(Cl)Cl (configuration not stated)
0.996 (inactive)

What about this compound? COc1cc(NC(C)CCCN)c2ncccc2c1 (configuration not stated)
1 (inactive)

What about this compound? COc1cc2c(cc1OC)C1C(=O)c3c(O)cc4c(c3OC1CO2)C=CC(C)(C)O4 (configuration not stated)
1.01 (inactive)

What about this compound? CCOC(=O)C1(O)Oc2cc(OC)cc(OC)c2C(=O)C1c1ccccc1 (configuration not stated)
1.01 (inactive)

What about this compound? O=C(CC[N+](=O)[O-])OC[C@H]1O[C@@H](O)[C@H](OC(=O)CC[N+](=O)[O-])[C@@H](OC(=O)CC[N+](=O)[O-])[C@@H]1OC(=O)CC[N+](=O)[O-]
1.01 (inactive)

What about this compound? COc1cc2c(cc1OC)C1C(=O)c3c(OC)cc4c(c3OC1CO2)CCC(C)(C)O4 (configuration not stated)
0.978 (inactive)

What about this compound? COC1=CC(=O)C[C@@H](C)[C@]12Oc1c(Cl)c(OC)cc(OC)c1C2=O
0.989 (inactive)

What about this compound? CC1(C)OC(=O)NC1=O
1.06 (inactive)
